Sourced from patent US20150376238A1

# MEASUREMENT_TARGET: H3 subtype hemagglutinin (strain not stated)
REPORTED_PROPERTY: Kd
For clarity, give the value followed by its unit.

BINDER	REPORTED_PROPERTY	RESULT
Variant H3 24-3a (I2T, V29E) (designed binder) GTGMVAISMDTDKISNSFEDCKYFLIVVESAGWTNTIFNDESGKKEIVKMNVDAIICKNISEENYKKFSKKIEIYHAEGDDVDKNISLFIEGELSKISNP	Kd	7.92 nM
Variant H3 24-2 (V27M, F38S, K49E) (designed binder) GIGMVAISMDTDKISNSFEDCKYFLIMVVSAGWTNTISNDESGKKEIVEMNVDAIICKNISEENYKKFSKKIEIYHAEGDDVDKNISLFIEGELSKISNP	Kd	8.97 nM
Variant H3 24-8 (V27M, K49E) (designed binder) GTGMVAISMDTDKISNSFEDCKYFLIMVVSAGWTNTIFNDESGKKEIVEMNVDAIICKNISEENYKKFSKKIEIYHAEGDDVDKNISLFIEGELSKISNPLE	Kd	14.8 nM

Now for a further binder.
The measured Kd associated with Variant H3 24-3b (V28M) (designed binder) GTGMVAISMDTDKISNSFEDCKYFLIVMVSAGWTNTIFNDESGKKEIVKMNVDAIICKNISEENYKKFSKKIEIYHAEGDDVDKNISLFIEGELSKISNPLE reads 12.7 nM
